Each recorded value in this set is attributed to PubChem BioAssay AID624167.

- Test system: PEG-3
- Run description: Peg3 promoter luciferase inhibitors, potency, dose response, cell-based, HeLa, CREF/GAPDH counter-screen panel (AID 624167)
- Condition description: HeLa PEG-Prom luciferase reporter, overnight, CREF/GAPDH counter-screens, run 1, dose range 1, individual replicate IC50 per panel
Measured IC50 accompanies every entry in the list below.

Specify reported IC50 for the molecule shown: O=C(Nc1ccc(N2CCOCC2)cc1)c1cnsn1 2.8 µM

Specify reported IC50 for the molecule shown: Cc1nc(N2CCN(S(=O)(=O)c3ccccc3C#N)CC2)c2c(-c3ccccc3)csc2n1 > 100 µM

Specify reported IC50 for the molecule shown: COc1ccc(C(=O)CN2C(=O)c3ccccc3S2(=O)=O)cc1 2.96 µM

Specify reported IC50 for the molecule shown: COCCn1c(C)cc(C(=O)CSc2nnc(C)s2)c1C 5.44 µM

Specify reported IC50 for the molecule shown: Oc1cccc(C(Nc2nccs2)c2ccc3cccnc3c2O)c1 (stereo unspecified) > 100 µM

Specify reported IC50 for the molecule shown: CN(C)CC1CCC/C(=C/c2ccc(Cl)cc2)C1=O (stereo unspecified) 14.5 µM

Specify reported IC50 for the molecule shown: O=C1/C(=C/c2ccccc2Cl)SC(=S)N1CCCC(=O)N(CCO)c1ccccc1 18.9 µM

Specify reported IC50 for the molecule shown: Cc1ccc(C(=O)CN2C(=O)c3ccccc3S2(=O)=O)cc1 6.12 µM

Specify reported IC50 for the molecule shown: Cc1ccc(-c2nc(C(Cl)Cl)c3ccccc3n2)cc1 > 100 µM

Specify reported IC50 for the molecule shown: CCOC(=O)Cc1csc(NC(=S)NC(=O)c2ccc(Cl)cc2)n1 7.55 µM

Specify reported IC50 for the molecule shown: CC(=O)NC(c1ccc(Cl)cc1Cl)c1ccc2cccnc2c1O (stereo unspecified) 0.852 µM
